System: panel of 55 breast cancer cell lines
Test: Cell growth inhibition assay (Cell Titer Glo, 72 h, 9 doses; GI50, TGI, LC50)
Format: cell-based, human
Conditions: ZR75B cell line; censored GI50 values; value is the negative log10 of mol/L
Just a reminder that ties go to no: only GI50 strictly below 5 counts as yes.

Task item: Decide: GI50 of N#Cc1c(NC(=O)c2cccc3ccccc23)sc2c1CCCC2 [TCS JNK 5a] strictly below 5?
Reply: yes

Task item: Input N.N.O=C([O-])C1(C(=O)[O-])CCC1.[Pt+2] [Carboplatin] ; condition: GI50 strictly below 5. Does it hold?
Reply: yes

Task item: A record lists O=C1NC(=O)/C(=C/c2ccc(-c3ccc(F)cc3O)o2)S1 [AS-252424] . Is its GI50 below 5?
Reply: yes

Task item: Determine if Cc1cc(C(=O)N2CCN(c3cccc(Cl)c3)CC2)n(-c2ccccc2)n1 [XRP44X] shows GI50 strictly lower than 5.
Reply: no

Task item: Quick check: does CC(/C=C/C(=O)NO)=C\[C@@H](C)C(=O)c1ccc(N(C)C)cc1 [Trichostatin A] have GI50 under 5?
Reply: no

Task item: In the record for O=S(=O)(CC1CS1)c1ccc(Oc2ccccc2)cc1 (centres unmarked) [SB-3CT] , is GI50 less than 5?
Reply: yes

Task item: # TODO verify GI50 < 5 strictly for this compound: O=c1[nH]c(=O)n([C@H]2C[C@H](O)[C@@H](CO)O2)cc1F [5-FdUR]
Reply: no

Task item: Does the reported GI50 of the following compound sit strictly below 5? O=c1[nH]c2ccccc2n1C1CCN(Cc2ccc(-c3nc4cc5[nH]cnc5cc4nc3-c3ccccc3)cc2)CC1 [Sigma AKT1-2 inhibitor]
Reply: no

Task item: Threshold test, GI50 < 5: C=CCNC1=C2C[C@@H](C)C[C@H](OC)[C@H](O)[C@@H](C)/C=C(\C)[C@H](OC(N)=O)[C@@H](OC)/C=C\C=C(/C)C(=O)NC(=CC1=O)C2=O [17-AAG]
Reply: no

Task item: hey, is GI50 for Cc1cc(Nc2cc(N3CCN(C)CC3)nc(Sc3ccc(NC(=O)C4CC4)cc3)n2)n[nH]1 [VX-680] lower than 5 or not?
Reply: no

Task item: Is 5 strictly greater than the compound's reported GI50? compound: Oc1cc(-c2nc(-c3ccccc3)[nH]c2-c2ccncc2)ccc1Cl [L-779450]
Reply: yes
